assay: DRUGMATRIX: Serotonin (5-Hydroxytryptamine) 5-HT3 radioligand binding (ligand: [3H] GR-65630); format: cell membranes, Membrane; conditions: hek293; Not Active = under 50% inhibition at 10 µM
property measured: IC50

# compound, IC50
measured = [
    ("CCn1cc(C(=O)O)c(=O)c2cc(F)c(N3CCN(C)CC3)cc21", "Not Active"),
    ("O=C(c1ccc(OCCN2CCCCC2)cc1)c1c(-c2ccc(O)cc2)sc2cc(O)ccc12", "Not Active"),
    ("CCN1CC(CCN2CCOCC2)C(c2ccccc2)(c2ccccc2)C1=O (stereo unspecified)", "Not Active"),
    ("COc1ccc2[nH]c([S+]([O-])Cc3ncc(C)c(OC)c3C)nc2c1 (stereo unspecified)", "Not Active"),
    ("CC(=O)Nc1cccc(O)c1", "Not Active"),
]

Request: Consider the compound CC1(C)O[C@@H]2C[C@H]3[C@@H]4C[C@H](F)C5=CC(=O)C=C[C@]5(C)[C@@]4(F)[C@@H](O)C[C@]3(C)[C@]2(C(=O)CO)O1 [FLUOCINOLONE ACETONIDE] and give its recorded IC50.
Response: Not Active

Request: Annotate the compound COCCCOc1ccnc(C[S+]([O-])c2nc3ccccc3[nH]2)c1C (stereo unspecified) with its measured IC50.
Response: Not Active

Request: Recall and state the measured IC50 for C#C[C@]1(O)CC[C@H]2[C@@H]3CCc4cc(OC)ccc4[C@H]3CC[C@@]21C .
Response: Not Active

Request: Quote IC50 reported for CCc1c2c(nc3ccc(OC(=O)N4CCC(N5CCCCC5)CC4)cc13)-c1cc3c(c(=O)n1C2)COC(=O)[C@]3(O)CC please.
Response: Not Active

Request: Query IC50 for CC(C)(Oc1ccc(C2CCCc3ccccc32)cc1)C(=O)O (stereo unspecified)
Response: Not Active

Request: Specify measured IC50 for N=C(Nc1ccccc1)Nc1ccccc1 .
Response: Not Active

Request: Supply measured IC50 of Cc1cc2cc3c(C)cc(=O)oc3c(C)c2o1 in your reply.
Response: Not Active

* * *

biological target: Melanocortin receptor 4 (Homo sapiens, UniProt P32245); format: cell membranes, Membrane; details: hek293; note: in other assays of this panel Not Active means under 50% inhibition at 10 µM
Sequence (P32245 whole entry): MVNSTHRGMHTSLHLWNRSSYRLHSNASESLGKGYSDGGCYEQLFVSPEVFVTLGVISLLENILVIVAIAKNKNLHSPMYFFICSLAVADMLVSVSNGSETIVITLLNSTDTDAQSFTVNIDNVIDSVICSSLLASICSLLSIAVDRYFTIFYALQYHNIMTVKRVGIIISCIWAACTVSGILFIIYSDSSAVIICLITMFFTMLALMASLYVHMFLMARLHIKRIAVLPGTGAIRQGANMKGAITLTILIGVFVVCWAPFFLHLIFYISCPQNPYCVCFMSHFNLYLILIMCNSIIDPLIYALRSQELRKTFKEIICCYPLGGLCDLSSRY
property measured: IC50

Solved cases below.
# molecule, property measured, val
data = [
    ("CC(C)(C)c1ccc(C(O)CCCN2CCC(C(O)(c3ccccc3)c3ccccc3)CC2)cc1 (stereo not given)", "IC50", "Not Active"),
    ("O=C(O)Cc1ccccc1Nc1c(Cl)cccc1Cl", "IC50", "Not Active"),
    ("CC(C)Cc1ccc(C(C)C(=O)O)cc1 (stereo not given)", "IC50", "Not Active"),
    ("Cc1ccc(S(=O)(=O)NC(=O)NN2CC3CCCC3C2)cc1 (stereo not given) [GLICLAZIDE]", "IC50", "Not Active"),
]

Now for the molecule whose IC50 we want.
Request: Dear colleague, please send me the reported IC50 for COc1cc2c(c(OC)c1OC)-c1ccc(OC)c(=O)cc1[C@@H](NC(C)=O)CC2 when you can.
Response: Not Active

* * *

target: UniProt:A6XA80; type: tissue-based, Lung
Sequence (A6XA80 whole entry): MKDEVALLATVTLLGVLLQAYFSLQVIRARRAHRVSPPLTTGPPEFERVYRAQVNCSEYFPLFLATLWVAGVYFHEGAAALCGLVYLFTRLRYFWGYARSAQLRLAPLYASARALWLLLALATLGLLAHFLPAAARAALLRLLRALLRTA
property measured: IC50

# compound, property measured, val
rows = [
    ("CC1=C(C(=O)O)N2C(=O)[C@@H](NC(=O)[C@H](N)c3ccccc3)[C@H]2SC1 [CEPHALEXIN ANHYDROUS]", "IC50", "Not Active"),
    ("CO[C@H]1/C=C/O[C@@]2(C)Oc3c(C)c(O)c4c(c3C2=O)C2=NC3(CCN(CC(C)C)CC3)NC2=C(NC(=O)/C(C)=C\\C=C\\[C@H](C)[C@H](O)[C@@H](C)[C@@H](O)[C@@H](C)[C@H](OC(C)=O)[C@@H]1C)C4=O", "IC50", "Not Active"),
    ("CCCC(CCC)C(=O)O", "IC50", "Not Active"),
]

* * *

Molecular target: Adenosine receptor A1 (Homo sapiens, UniProt P30542); note: in other assays of this panel Not Active means under 50% inhibition at 10 µM
Sequence (P30542 whole entry): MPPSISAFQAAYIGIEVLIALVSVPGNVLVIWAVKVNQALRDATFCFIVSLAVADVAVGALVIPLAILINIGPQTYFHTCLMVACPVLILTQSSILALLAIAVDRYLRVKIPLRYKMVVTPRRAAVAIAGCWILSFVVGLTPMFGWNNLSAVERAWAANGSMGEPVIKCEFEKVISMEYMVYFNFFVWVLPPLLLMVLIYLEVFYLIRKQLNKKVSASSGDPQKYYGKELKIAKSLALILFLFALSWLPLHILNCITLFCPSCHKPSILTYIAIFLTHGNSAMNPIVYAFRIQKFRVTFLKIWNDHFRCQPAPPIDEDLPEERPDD
Type: cell membranes, Membrane
Conditions: cho
property measured: IC50

Below, each entry is followed by its recorded IC50 result.
# molecule, IC50
records = [
    ("C#C[C@]1(OC(C)=O)CC[C@H]2[C@@H]3CCC4=CC(=O)CC[C@@H]4[C@H]3CC[C@@]21C [NORETHINDRONE ACETATE]", "Not Active"),
    ("O=C(C1CCCCC1)N1CC(=O)N2CCc3ccccc3C2C1 (configuration not stated) [PRAZIQUANTEL]", "Not Active"),
    ("C[C@@H]1C[C@@H]([C@H](O)CC2CC(=O)NC(=O)C2)C(=O)[C@@H](C)C1 [CYCLOHEXIMIDE]", "Not Active"),
    ("COc1cc2c(c(OC)c1OC)-c1ccc(OC)c(=O)cc1[C@@H](NC(C)=O)CC2 [COLCHICINE]", "Not Active"),
    ("COc1cccc2c1C(=O)c1c(O)c3c(c(O)c1C2=O)C[C@@](O)(C(=O)CO)C[C@@H]3O[C@H]1C[C@H](N)[C@@H](O)[C@H](C)O1 [EPIRUBICIN]", "Not Active"),
]

Request: Return reported IC50 for target or system Adenosine receptor A1 (Homo sapiens, UniProt P30542), item O=C1CC2(CCCC2)CC(=O)N1CCCCN1CCN(c2ncccn2)CC1 [BUSPIRONE] . Note: in other assays of this panel Not Active means under 50% inhibition at 10 µM.
Response: Not Active

Request: Name the value of IC50 reported for CC(=O)CC(c1ccccc1)c1c(O)c2ccccc2oc1=O (configuration not stated) [WARFARIN] when tested on Adenosine receptor A1 (Homo sapiens, UniProt P30542). Note: in other assays of this panel Not Active means under 50% inhibition at 10 µM.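 Note: radioligand binding assay at the adenosine A1 receptor, with DPCPX serving as the labelled ligand.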
Response: Not Active

* * *

assay: DRUGMATRIX: Phosphodiesterase PDE4 enzyme inhibition (substrate: [3H]cAMP + cAMP); settings: u-937; Not Active = under 50% inhibition at 10 µM
property measured: Ki

# compound, Ki
rows = [
    ("C[C@]12CC[C@@H]3c4ccc(O)cc4CC[C@H]3[C@@H]1CC[C@@H]2O [ESTRADIOL]", "Not Active"),
    ("Cc1cc2cc3c(C)cc(=O)oc3c(C)c2o1 [TRIOXSALEN]", "Not Active"),
    ("Cc1ccccc1C(=O)N1CCC(Cc2ccccc2)CC1", "Not Active"),
    ("O=C1CC2(CCCC2)CC(=O)N1CCCCN1CCN(c2ncccn2)CC1 [BUSPIRONE]", "Not Active"),
    ("COc1cccc2c1C(=O)c1c(O)c3c(c(O)c1C2=O)C[C@@](O)(C(=O)CO)C[C@@H]3O[C@H]1C[C@H](N)[C@@H](O)[C@H](C)O1 [EPIRUBICIN]", "Not Active"),
]

Request: Give the measured Ki for CC(C)C[C@H](NC(=O)[C@@H](O)[C@H](N)Cc1ccccc1)C(=O)O [UBENIMEX]
Response: Not Active

Request: Identify the reported Ki for the following entry. Cc1nccn1CC1CCc2c(c3ccccc3n2C)C1=O (centres undefined) [ONDANSETRON]
Response: Not Active

Request: Report measured Ki; entry is O=C(C1CCCCC1)N1CC(=O)N2CCc3ccccc3C2C1 (centres undefined) [PRAZIQUANTEL]
Response: Not Active

Request: Find the measured Ki of COCCOC(=O)C1=C(C)NC(C)=C(C(=O)OC(C)C)C1c1cccc([N+](=O)[O-])c1 (centres undefined) [NIMODIPINE] and report it.
Response: Not Active

* * *

target: Protein phosphatase 3 catalytic subunit alpha (Homo sapiens); design: species or system Escherichia coli; details: read-out: IC50; note: in other assays of this panel Not Active means under 50% inhibition at 10 µM;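 note: inhibition of calcineurin (PP2B) enzyme activity, measured with DiFMUP as the substrate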
property measured: IC50 (µM)
# number only, unit µM dropped from output

Request: Tell me measured IC50 for [Cl-].[Cl-].[Zn+2] [ZINC CHLORIDE] please.
Response: 1.1

* * *

experiment: DRUGMATRIX: Phosphodiesterase PDE3 enzyme inhibition (substrate: [3H]cAMP + cAMP); assay type: tissue-based, Homo sapiens; conditions: platelet; Not Active = under 50% inhibition at 10 µM; read-out: IC50
property measured: IC50 (nM)
Give the quantity in nM, number only.

Request: In one line, give reported IC50 of the entry COCCCOc1ccnc(C[S+]([O-])c2nc3ccccc3[nH]2)c1C (stereo unspecified) [RABEPRAZOLE] .
Response: 2280
